Quick list: Ki per entry.
biological target: PADI4 (Homo sapiens); construct: His6; made in house; assay: Surface plasmon resonance (SPR), single cycle kinetics; type: binding; conditions: two-state reaction model, k-1/k+1
Sequence (Q9UM07 whole entry): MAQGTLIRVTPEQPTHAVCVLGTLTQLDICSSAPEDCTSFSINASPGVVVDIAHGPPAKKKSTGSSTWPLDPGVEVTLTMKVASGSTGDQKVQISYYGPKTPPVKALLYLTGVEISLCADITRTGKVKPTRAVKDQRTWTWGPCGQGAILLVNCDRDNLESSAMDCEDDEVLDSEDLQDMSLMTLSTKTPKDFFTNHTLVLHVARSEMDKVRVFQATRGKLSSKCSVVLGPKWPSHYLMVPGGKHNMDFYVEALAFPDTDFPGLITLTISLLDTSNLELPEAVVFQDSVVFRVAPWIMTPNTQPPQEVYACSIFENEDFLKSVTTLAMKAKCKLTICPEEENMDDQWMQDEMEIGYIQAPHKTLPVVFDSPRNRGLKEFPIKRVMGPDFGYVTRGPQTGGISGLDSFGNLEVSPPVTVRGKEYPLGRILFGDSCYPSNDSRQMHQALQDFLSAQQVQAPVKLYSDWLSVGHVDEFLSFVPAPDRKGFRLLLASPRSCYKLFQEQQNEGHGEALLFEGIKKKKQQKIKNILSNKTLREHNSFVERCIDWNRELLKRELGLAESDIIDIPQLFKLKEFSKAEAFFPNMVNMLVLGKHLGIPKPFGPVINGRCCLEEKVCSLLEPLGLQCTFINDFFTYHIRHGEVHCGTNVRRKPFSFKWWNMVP
Where a SMILES comes first, the peptide text is derived from it. Bridges are numbered along the chain shown (N, C = ends). [ ]: non-standard residue; d: D form. Orn(fluoroacetimidoyl) = N=C(CF)NCCC[C@H](N)C(=O)O
Express the result in nM but write the number alone.

The following compounds have reported results that may help.
compound | readout_value
CC[C@H](C)[C@@H]1NC(=O)[C@@H](Cc2ccc(O)cc2)NC(=O)CSC[C@@H](C(=O)NCC(N)=O)NC(=O)[C@H](CO)NC(=O)[C@H](CCCNC(=N)CF)NC(=O)[C@H](CC(=O)O)NC(=O)[C@H](CCCNC(=N)CF)NC(=O)[C@H](CC(C)C)NC(=O)CNC(=O)[C@H](Cc2c[nH]c3ccccc23)NC1=O [cP4_2, yIWGL(2)D(2)SCG] ({CH2CO}-[dY]IWGL[Orn(fluoroacetimidoyl)]D[Orn(fluoroacetimidoyl)]SCG-NH2; thioether N-10) | 1300
N=C(N)NCCC[C@@H]1NC(=O)[C@H](CCCCN)NC(=O)[C@H](CC(N)=O)NC(=O)[C@H](Cc2ccccc2)NC(=O)[C@H](CC(=O)O)NC(=O)[C@H](Cc2c[nH]c3ccccc23)NC(=O)[C@H](CC(N)=O)NC(=O)[C@H](CCCNC(=N)CF)NC(=O)[C@H](Cc2ccc(O)cc2)NC(=O)[C@H](Cc2c[nH]c3ccccc23)NC(=O)[C@@H](Cc2ccc(O)cc2)NC(=O)CSC[C@@H](C(=O)NCC(N)=O)NC1=O [cP4_10, yWY(2)NWDFNKRCG] ({CH2CO}-[dY]WY[Orn(fluoroacetimidoyl)]NWDFNKRCG-NH2; thioether N-12) | 120
CC(C)[C@@H]1NC(=O)[C@@H](Cc2ccc(O)cc2)NC(=O)CSC[C@@H](C(=O)NCC(N)=O)NC(=O)[C@H](Cc2ccc(O)cc2)NC(=O)[C@H](CCCCN)NC(=O)[C@H](Cc2c[nH]c3ccccc23)NC(=O)[C@H](CCC(=O)O)NC(=O)[C@H](CCCCN)NC(=O)[C@H](CCCNC(=N)CF)NC(=O)[C@H](CO)NC(=O)[C@H](Cc2ccc(O)cc2)NC1=O [cP4_7, yVYS(2)KEWKYCG] ({CH2CO}-[dY]VYS[Orn(fluoroacetimidoyl)]KEWKYCG-NH2; thioether N-11) | 1600

Shift focus to the following entry.
Incoming: I'd like to know its Ki. The compound in question is CC[C@H](C)[C@H](NC(=O)[C@H](Cc1c[nH]c2ccccc12)NC(=O)[C@H](CCC(=O)O)NC(=O)[C@@H]1CSCC(=O)N[C@H](Cc2ccc(O)cc2)C(=O)N[C@@H](C(C)C)C(=O)N[C@@H](Cc2ccc(O)cc2)C(=O)N[C@@H](CCCNC(=N)CF)C(=O)N[C@@H](CC(=O)O)C(=O)N1)C(=O)N[C@@H](CC(N)=O)C(=O)N[C@@H](CCCNC(=N)N)C(=O)N[C@@H](C)C(=O)NCC(N)=O [cP4_165, yVY(2)DCEWINRAG] ({CH2CO}-[dY]VY[Orn(fluoroacetimidoyl)]DCEWINRAG-NH2; thioether N-6)
Outgoing: 620

###

Quick list: kinact per entry.
Biological target: PADI4 (Homo sapiens)
Construct: His6; made in house
Test: Surface plasmon resonance (SPR), single cycle kinetics
Assay type: binding
Details: each replicate; read-out: k2 / kinact
Protocol: S8. Surface plasmon resonance (SPR) Using a Biacore S200 (GE Healthcare), biotinylated His-PADI4 (80 nM) was immobilised on a CAP chip (GE Healthcare) to a response unit of approx. 3000. […] mM HEPES, 150 mM NaCl, 10 mM CaCl2, 0.05% Tween-20, 0.1% DMSO (pH 7.5). […] Data were analysed with the Biacore S200 Evaluation Software, each in triplicate. Warhead-containing peptides were analysed using the two-state reaction model, with the rate constant for the reverse second step (k-2) set to zero. […]
Where a SMILES comes first, the peptide text is derived from it. Bridges are numbered along the chain shown (N, C = ends). [ ]: non-standard residue; d: D form. Orn(fluoroacetimidoyl) = N=C(CF)NCCC[C@H](N)C(=O)O
Express the result in s⁻¹ but write the number alone.

The following compounds have reported results that may help.
compound | kinact (s⁻¹)
CC(C)[C@@H]1NC(=O)[C@@H](Cc2ccc(O)cc2)NC(=O)CSC[C@@H](C(=O)NCC(N)=O)NC(=O)[C@H](Cc2ccc(O)cc2)NC(=O)[C@H](CCCCN)NC(=O)[C@H](Cc2c[nH]c3ccccc23)NC(=O)[C@H](CCC(=O)O)NC(=O)[C@H](CCCCN)NC(=O)[C@H](CCCNC(=N)CF)NC(=O)[C@H](CO)NC(=O)[C@H](Cc2ccc(O)cc2)NC1=O [cP4_7, yVYS(2)KEWKYCG] ({CH2CO}-[dY]VYS[Orn(fluoroacetimidoyl)]KEWKYCG-NH2; thioether N-11) | 0.0086
CC[C@H](C)[C@H](NC(=O)[C@H](Cc1c[nH]c2ccccc12)NC(=O)[C@H](CCC(=O)O)NC(=O)[C@@H]1CSCC(=O)N[C@H](Cc2ccc(O)cc2)C(=O)N[C@@H](C(C)C)C(=O)N[C@@H](Cc2ccc(O)cc2)C(=O)N[C@@H](CCCNC(=N)CF)C(=O)N[C@@H](CC(=O)O)C(=O)N1)C(=O)N[C@@H](CC(N)=O)C(=O)N[C@@H](CCCNC(=N)N)C(=O)N[C@@H](C)C(=O)NCC(N)=O [cP4_165, yVY(2)DCEWINRAG] ({CH2CO}-[dY]VY[Orn(fluoroacetimidoyl)]DCEWINRAG-NH2; thioether N-6) | 0.0013
N=C(N)NCCC[C@@H]1NC(=O)[C@H](CCCCN)NC(=O)[C@H](CC(N)=O)NC(=O)[C@H](Cc2ccccc2)NC(=O)[C@H](CC(=O)O)NC(=O)[C@H](Cc2c[nH]c3ccccc23)NC(=O)[C@H](CC(N)=O)NC(=O)[C@H](CCCNC(=N)CF)NC(=O)[C@H](Cc2ccc(O)cc2)NC(=O)[C@H](Cc2c[nH]c3ccccc23)NC(=O)[C@@H](Cc2ccc(O)cc2)NC(=O)CSC[C@@H](C(=O)NCC(N)=O)NC1=O [cP4_10, yWY(2)NWDFNKRCG] ({CH2CO}-[dY]WY[Orn(fluoroacetimidoyl)]NWDFNKRCG-NH2; thioether N-12) | 0.0041
CC[C@H](C)[C@@H]1NC(=O)[C@H](CCCNC(=N)N)NC(=O)[C@H](Cc2ccc(O)cc2)NC(=O)[C@H](CCCNC(=N)N)NC(=O)[C@H](CCC(=O)O)NC(=O)[C@H](CCCNC(=N)CF)NC(=O)[C@H](CC(N)=O)NC(=O)[C@H](CC(C)C)NC(=O)[C@@H](Cc2ccc(O)cc2)NC(=O)CSC[C@@H](C(=O)NCC(N)=O)NC(=O)[C@H](CO)NC1=O [cP4_18] ({CH2CO}-[dY]LN[Orn(fluoroacetimidoyl)]ERYRISCG-NH2; thioether N-11) | 0.0027
CC[C@H](C)[C@@H]1NC(=O)[C@@H](Cc2ccc(O)cc2)NC(=O)CSC[C@@H](C(=O)NCC(N)=O)NC(=O)[C@H](CO)NC(=O)[C@H](CCCNC(=N)CF)NC(=O)[C@H](CC(=O)O)NC(=O)[C@H](CCCNC(=N)CF)NC(=O)[C@H](CC(C)C)NC(=O)CNC(=O)[C@H](Cc2c[nH]c3ccccc23)NC1=O [cP4_2, yIWGL(2)D(2)SCG] ({CH2CO}-[dY]IWGL[Orn(fluoroacetimidoyl)]D[Orn(fluoroacetimidoyl)]SCG-NH2; thioether N-10) | 0.0014

Incoming: I'd like to know its kinact. The compound in question is CC[C@H](C)[C@@H]1NC(=O)[C@@H](Cc2ccc(O)cc2)NC(=O)CSC[C@@H](C(=O)NCC(N)=O)NC(=O)[C@H]([C@@H](C)O)NC(=O)[C@H](C(C)C)NC(=O)[C@H](CC(=O)O)NC(=O)[C@H](CCCNC(=N)CF)NC(=O)[C@H](CC(C)C)NC(=O)[C@H](CC(=O)O)NC(=O)[C@H](Cc2c[nH]c3ccccc23)NC1=O [cP4_13] ({CH2CO}-[dY]IWDL[Orn(fluoroacetimidoyl)]DVTCG-NH2; thioether N-10)
Outgoing: 0.0025

Incoming: Repeat with N=C(N)NCCC[C@@H]1NC(=O)[C@H](Cc2ccc(O)cc2)NC(=O)[C@H](Cc2c[nH]cn2)NC(=O)[C@H](CCCNC(=N)CF)NC(=O)[C@H](CC(=O)O)NC(=O)[C@H](CCCNC(=N)N)NC(=O)[C@@H](Cc2ccc(O)cc2)NC(=O)CSC[C@@H](C(=O)NCC(N)=O)NC(=O)[C@H](Cc2ccc(O)cc2)NC(=O)[C@H](CCCCN)NC(=O)[C@@H]2CCCN2C(=O)[C@H](Cc2c[nH]cn2)NC1=O [PADI4_3_H4(2), yRD(2)HYRHPKYCG] ({CH2CO}-[dY]RD[Orn(fluoroacetimidoyl)]HYRHPKYCG-NH2; thioether N-12)
Outgoing: 0.001

Incoming: Repeat with CC(C)C[C@@H]1NC(=O)[C@H](CCCCN)NC(=O)[C@H](CO)NC(=O)[C@H](CO)NC(=O)[C@H](Cc2ccc(O)cc2)NC(=O)[C@H](Cc2c[nH]cn2)NC(=O)[C@H](CCCNC(=N)CF)NC(=O)[C@H](CC(=O)O)NC(=O)[C@H](CC(C)C)NC(=O)[C@@H](Cc2ccc(O)cc2)NC(=O)CSC[C@@H](C(=O)NCC(N)=O)NC(=O)[C@H](Cc2ccc(O)cc2)NC1=O [cP4_15, yLD(2)HYSSKLYCG] ({CH2CO}-[dY]LD[Orn(fluoroacetimidoyl)]HYSSKLYCG-NH2; thioether N-12)
Outgoing: 0.0028

Incoming: Repeat with N=C(N)NCCC[C@@H]1NC(=O)[C@H](CCCNC(=N)CF)NC(=O)[C@H](CC(=O)O)NC(=O)[C@H](Cc2ccc(O)cc2)NC(=O)[C@H](CCCCN)NC(=O)[C@H](CO)NC(=O)[C@@H](Cc2ccc(O)cc2)NC(=O)CSC[C@@H](C(=O)NCC(N)=O)NC(=O)[C@H](CC(=O)O)NC(=O)[C@H](CCCNC(=N)N)NC(=O)[C@@H]2CCCN2C(=O)[C@H](CO)NC1=O [cP4_4, ySKYD(2)RSPRDCG] ({CH2CO}-[dY]SKYD[Orn(fluoroacetimidoyl)]RSPRDCG-NH2; thioether N-12)
Outgoing: 0.0017
